Data origin, for the record: ChEMBL document CHEMBL3988442

Molecular target: Shiga toxin 2 (Escherichia coli O157:H7) (UniProt P09385+P09386)
Assay: E. coli 0.157:H7 Shiga Toxin SOP - stx2 screening assay
Format: functional
Set-up: scale not given: direction of the effect not stated beside the values
Details: 30 µM

compound | Percent Effect
O=C(c1cc2cc(F)ccc2[nH]1)N1CCC(Nc2cccnn2)CC1 | -83.2%
Cc1cccc(CNCc2c(C)nn(C)c2N2CCOCC2)n1 | -0.864%
COc1ccc(OCC(=O)NC(C)c2ccc(F)cc2)c(C(=O)O)c1 (stereo unspecified) | 12%
CCn1cnnc1C1CCN(C(=O)COc2ccccc2)CC1 | -10%
CC(C)c1nnc(CN2CCCC2Cn2cncn2)o1 (stereo unspecified) | -22.4%
CCc1nc2n(n1)CC(NCc1nc(C)ccc1O)CC2 (stereo unspecified) | 11.7%
Cc1occc1C(=O)N1CC[C@@H](N2CCOCC2)[C@@H]1Cc1ccccc1 | 6.03%
Cc1cc(NC(=O)CN2CCCC2c2noc(C(C)C)n2)n(C)n1 (stereo unspecified) | 5.27%
CCc1noc(C(C)N(C)CC(=O)Nc2cccc(C)n2)n1 (stereo unspecified) | -14.2%
Cc1cccc(COC[C@@H]2CC[C@H]3[C@H](CCN3Cc3ccco3)O2)n1 | -16.8%
CC(C)N(CC(N)=O)Cc1csc(Cc2ccccc2)n1 | 12%

###

Each entry below lists one item and its recorded Percent Effect value.
Target: Aspartate--tRNA(Asp/Asn) ligase (Mycobacterium tuberculosis (strain ATCC 25618 / H37Rv)) (UniProt P9WFW3); further: in the data most compounds retested in dose-response had high values
Sequence (P9WFW3 whole entry): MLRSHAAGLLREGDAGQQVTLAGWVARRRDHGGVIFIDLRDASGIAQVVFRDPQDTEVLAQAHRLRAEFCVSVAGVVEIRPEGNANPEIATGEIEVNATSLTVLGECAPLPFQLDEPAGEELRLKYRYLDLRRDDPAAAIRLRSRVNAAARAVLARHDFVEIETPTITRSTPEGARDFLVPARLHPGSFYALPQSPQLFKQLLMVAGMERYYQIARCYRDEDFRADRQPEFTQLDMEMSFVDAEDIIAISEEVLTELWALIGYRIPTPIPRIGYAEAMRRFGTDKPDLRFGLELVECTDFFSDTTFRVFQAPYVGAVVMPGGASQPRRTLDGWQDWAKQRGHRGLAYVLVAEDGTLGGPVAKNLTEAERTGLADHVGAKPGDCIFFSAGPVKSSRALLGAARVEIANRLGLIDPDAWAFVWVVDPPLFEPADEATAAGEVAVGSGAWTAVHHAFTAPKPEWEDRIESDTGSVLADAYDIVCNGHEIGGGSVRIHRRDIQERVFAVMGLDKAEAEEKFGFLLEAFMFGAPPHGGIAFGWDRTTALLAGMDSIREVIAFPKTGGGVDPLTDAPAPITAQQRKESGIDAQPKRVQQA
Test: Assay for Asp RNA synthetase-1 from Mycobacterium tuberculosis
Format: functional
Design: scale not given: direction of the effect not stated beside the values
Conditions: 30 µM

compound | Percent Effect, %
CNS(=O)(=O)CCCN1CCCC1c1noc(C2CC2)n1 (stereo not drawn) | -2.37
c1ccc(-n2ncc(CNC3CCc4ncnn4C3)n2)cc1 (stereo not drawn) | 1.39
CN(C)C(=O)CN1CCC2(CCCN(Cc3cccn3C)C2)C1=O (stereo not drawn) | 2.49
Cn1cc(C2CCCN2CCCc2nc(-c3cccs3)no2)cn1 (stereo not drawn) | 0.756
Cc1noc([C@@H]2C[C@H]3OCC[C@H]3N(S(=O)(=O)c3cccnc3)C2)n1 | -1.34
CS(=O)(=O)NC[C@H]1OC[C@@H]2CCN(Cc3ccc(F)cc3)C[C@@H]21 | 0.903
CNS(=O)(=O)c1ccc(C(=O)NCCc2ccccn2)cc1 | 9.16
CCc1csc(C2CCCN(C(=O)c3ccnc(N(C)C)c3)C2)n1 (stereo not drawn) | 1.86
Cc1nn(C)c(Cl)c1C1CCCN1C(=O)c1cc(Cl)c[nH]1 (stereo not drawn) | 1.85
Cc1nnc(NC(=O)NCc2cccnc2N(C)C)s1 | -2.76
c1cc(CNCc2ccc3c(c2)CCO3)cc(N2CCOCC2)n1 | -4.98
CO[C@H]1CCN(Cc2cccc(C)n2)[C@@H]2CN(Cc3cccnc3)C[C@H]12 | -0.57
CC(C)C(NC(=O)NCC1(CO)CC1)c1nnc2n1CCC2 (stereo not drawn) | -3.28
COc1ccc(S(=O)(=O)N2CCCC3(CCCN3S(C)(=O)=O)C2)cc1 (stereo not drawn) | -2.13
Cc1ncc(CNC(=O)CCOc2ccccc2)c(C2CCCN2C)n1 (stereo not drawn) | 5.05
CC(C)CN1CCN(C(=O)NCc2cccnc2-n2cccn2)CC1 | -1.98
O=C(Cn1ccc2c(Cl)cccc21)N1CCC2(CC1)OCCO2 | 0.188
Cc1cccc(COC[C@@H]2CC[C@H]3[C@H](CCN3Cc3ccco3)O2)n1 | -0.843
O=C(NCCOc1ccc2c(c1)OCO2)C1CC(=O)N(CC2CC2)C1 (stereo not drawn) | 4.55
CCNC(=O)c1ccc2c(c1)nc1n2CCN(Cc2ccco2)C1 | 3.83
COc1ccccc1OCc1cc(C(=O)N2C[C@H](O)[C@@H](N(C)C)C2)n[nH]1 | 0.529
Cc1csc(CN2CCC[C@]3(C[C@H](Oc4ccccn4)CO3)C2)n1 | 2.42
COCCN1CC[C@]2(CN(C(=O)c3cccs3)C[C@H]2C)C1=O | 1.59
